Target: CDK19/Cyclin C (Homo sapiens (Human))
Sequence (Q9BWU1 whole entry): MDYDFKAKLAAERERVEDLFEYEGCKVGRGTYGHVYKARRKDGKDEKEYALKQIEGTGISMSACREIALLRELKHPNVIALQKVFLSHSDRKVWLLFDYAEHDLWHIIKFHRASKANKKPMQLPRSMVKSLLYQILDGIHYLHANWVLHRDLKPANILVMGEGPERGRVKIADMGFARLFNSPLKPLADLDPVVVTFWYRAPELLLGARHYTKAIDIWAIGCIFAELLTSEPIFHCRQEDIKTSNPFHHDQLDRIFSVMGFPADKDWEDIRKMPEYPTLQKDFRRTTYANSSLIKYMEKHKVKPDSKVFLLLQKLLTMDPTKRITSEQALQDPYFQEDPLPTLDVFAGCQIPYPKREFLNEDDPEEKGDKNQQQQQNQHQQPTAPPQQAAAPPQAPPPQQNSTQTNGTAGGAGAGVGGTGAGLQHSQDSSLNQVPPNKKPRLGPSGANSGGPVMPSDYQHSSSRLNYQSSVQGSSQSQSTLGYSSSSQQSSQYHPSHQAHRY
Sequence (P24863 whole entry partner): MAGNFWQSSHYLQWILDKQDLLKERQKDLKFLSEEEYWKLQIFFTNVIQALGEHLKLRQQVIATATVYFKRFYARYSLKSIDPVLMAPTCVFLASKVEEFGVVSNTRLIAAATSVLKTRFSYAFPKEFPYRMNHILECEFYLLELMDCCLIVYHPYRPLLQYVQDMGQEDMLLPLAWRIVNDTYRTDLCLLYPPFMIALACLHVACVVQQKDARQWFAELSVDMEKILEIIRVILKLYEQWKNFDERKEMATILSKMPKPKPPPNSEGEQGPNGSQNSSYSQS
Assay: CDK19/Cyclin C binding assay (LanthaScreen Eu-Kinase Binding Assay)
Conditions: read-out: CDK19-CYCC IC50
A collection of compounds and their measured pIC50
Friendly reminder that pIC50 comes from taking -log10 of the concentration in mol/L.

COMPOUND: NC(=O)c1cc2c([nH]1)-c1ccncc1O[C@H]2C1CCCCC1 (single isomer, unassigned) [Example 70]
MEASURED_ON: CDK19/Cyclin C (Homo sapiens (Human))
pIC50: 8.15

Reported pIC50 for CCn1c(C(N)=O)cc2c1-c1ccncc1O[C@H]2C1CCCCC1 (single isomer, unassigned) [Example 89] was 8.85

Reported pIC50 for COc1ccccc1-c1c2c(n(CCF)c1C(N)=O)-c1ccncc1OC2(C)C [Example 73] was 7.01

Reported pIC50 for Cn1c(C(N)=O)cc2c1-c1ccncc1OC21CCCCC1 [Example 83] was 8.85

Where these numbers come from: patent US10208056B2
